These data points were gathered from ChEMBL document CHEMBL5058564.

tested on: U2OS; assay: Incucyte cell viability with U2OS; format: toxicity, cell-based; details: human, 12 h, 10 µM, compound concentration 10 uM, replicate number 1, timepoint 12 hours; note: unitless GR value; below 1 slowed growth and below 0 cell loss
Categories are defined by ranges of Growth Rate, namely small value = under 0.5, mid value = from 0.5 up to 0.7, large value = 0.7 and over

Below, 2 compounds whose answers are already recorded.
                                   compound  qualitative_label
0  COc1cc(Nc2ncc3c(n2)-c2ccc(Cl)cc2C(c2c(F)cccc2OC)=NC3)ccc1C(=O)O        small value
1  O=C1NC(=O)C(c2ccccc2[N+](=O)[O-])=C1Nc1ccc(O)c(Cl)c1        large value

For the record CCCCCCCC/C=C\CCCCCCCC(N)=O [OLEAMIDE] , report the class its Growth Rate corresponds to.
large value

For the record COc1ccccc1N1CCN(CCCCNC(=O)c2ccc3ccccc3c2)CC1.Cl , report the class its Growth Rate corresponds to.
mid value

For the record CCOC(=O)c1c(/C(C#N)=C\N)c2ccc(Cl)c(Cl)c2n1C , report the class its Growth Rate corresponds to.
mid value

For the record Cl.O=C1CC[C@@]2(O)[C@H]3Cc4ccc(O)c5c4[C@@]2(CCN3CC2CC2)[C@H]1O5 [NALTREXONE HYDROCHLORIDE] , report the class its Growth Rate corresponds to.
small value

For the record CCOC(=O)Nc1cc(-c2ccc(C)c(NS(C)(=O)=O)c2)nn2c(C)nnc12 , report the class its Growth Rate corresponds to.
mid value

For the record Cc1cc(C)cc([C@H]2c3cc(C)ccc3NC(=O)CN2C(=O)c2ccc(Br)s2)c1 , report the class its Growth Rate corresponds to.
mid value

----------
Growth Rate overview
tested on: U2OS; test: Incucyte cell viability with U2OS; format: toxicity, cell-based; conditions: human, 24 h, 10 µM, compound concentration 10 uM, replicate number 2, timepoint 24 hours; note: unitless GR value; below 1 slowed growth and below 0 cell loss
Please reply with the value in numeric form only.

As a guide, the following entries are already answered.
>>> df
                                   molecule  result
0  CCCCCCNC(=O)Nc1ccc(S(=O)(=O)Nc2ccc(CCNC[C@H](O)COc3ccc(O)cc3)cc2)cc1    0.89
1  COc1cc2nc(N3CCN(C(=O)c4ccco4)CC3)nc(N)c2cc1OC.Cl [PRAZOSIN HYDROCHLORIDE]    0.92
2  CC[C@@]1(O)C(=O)OCc2c1cc1n(c2=O)Cc2cc3ccccc3nc2-1     0.2

GET /values?readout=Growth Rate&item= COc1cc(OC2CCN(C(C)=O)CC2)ccc1C(=O)N1CCC(N2C(=O)OCc3ccccc32)CC1
0.88

----------
system: U2OS; experiment: Incucyte cell viability with U2OS; type: toxicity, cell-based; conditions: human, 0 h, 10 µM, compound concentration 10 uM, replicate number 1, timepoint 0 hours; note: unitless GR value; below 1 slowed growth and below 0 cell loss
Measured quantity: Growth Rate
Please reply with the value in numeric form only.

As a guide, the following entries are already answered.
Compound	Growth Rate
C[C@@H](c1ccc(F)cc1)n1nnc2cnc3ccc(-c4ccc5ocnc5c4)cc3c21	-0.51
Cl.Cl.NCCc1c[nH]cn1 [HISTAMINE DIHYDROCHLORIDE]	0.04
Cc1nccc(COC(=O)N2C[C@@H]3[C@@H](CNC(=O)c4ccc5[nH]nnc5c4)[C@@H]3C2)n1	0.07
O=C(O)CCC/C=C\CC1C(O)CC(O)C1/C=C/C(O)COc1cccc(Cl)c1 (stereo not drawn)	-0.27
O=C1NC(=O)C(c2ccccc2[N+](=O)[O-])=C1Nc1ccc(O)c(Cl)c1	0.02
Br.Br.c1ncc(CC2CCNCC2)[nH]1	0.94
CN[C@@H](C)C(=O)N[C@H]1CCCC[C@H]2CC[C@@H](C(=O)N[C@@H](c3ccccc3)c3cn(CCCCc4ccc(CCCCn5cc([C@@H](NC(=O)[C@@H]6CC[C@@H]7CCCC[C@H](NC(=O)[C@H](C)NC)C(=O)N76)c6ccccc6)nn5)cc4)nn3)N2C1=O	-0.18

Requested read-out Growth Rate, target or system U2OS, entry COc1cc(OC)cc(C(=O)NNC(=O)Nc2cccc3ccccc23)c1
0.7

----------
Growth Rate overview
tested on: HEK-293T; test: Incucyte cell viability with HEK293T; assay type: toxicity, cell-based; conditions: human, 0 h, 10 µM, compound concentration 10 uM, replicate number 2, timepoint 0 hours; note: unitless GR value; below 1 slowed growth and below 0 cell loss
Please reply with the value in numeric form only.

As a guide, the following entries are already answered.
>>> print(df.to_string())
                                   compound  result
0  COc1ccc(NC(=O)c2ccc(-c3ccc(-c4noc(C)n4)cc3C)cc2)cc1OCCN(C)C.Cl   -0.89
1  Cl.Clc1cccc(Cl)c1NC1=NCCN1 [CLONIDINE HYDROCHLORIDE]    0.43
2  CN1CCc2cc(Cl)c(O)cc2[C@@H](c2ccccc2)C1.Cl    0.66
3  COc1cc(N2CCN(C)CC2)ccc1Nc1nccc(-c2cn(C)c3cnccc23)n1   -0.28

GET /values?readout=Growth Rate&item= CCOc1nc2cccc(C(=O)O)c2n1Cc1ccc(-c2ccccc2-c2nnn[nH]2)cc1
0.52

----------
system: HEK-293T; test: Incucyte cell viability with HEK293T; format: toxicity, cell-based; conditions: human, 12 h, 10 µM, compound concentration 10 uM, replicate number 1, timepoint 12 hours; note: unitless GR value; below 1 slowed growth and below 0 cell loss
Cut-off 0.7 on Growth Rate, inclusive. At or above means true (1); below means false (0).

Below, 6 compounds whose answers are already recorded.
>>> df
                                   compound  qualitative_label
0  CCCCC(=O)N(Cc1ccc(-c2ccccc2-c2nnn[nH]2)cc1)[C@H](C(=O)O)C(C)C           true (1)
1  Cc1ccc(O)c([C@H](CCN(C(C)C)C(C)C)c2ccccc2)c1.O=C(O)C(O)C(O)C(=O)O [TOLTERODINE TARTRATE]           true (1)
2  C[C@@H]1C[C@H]2[C@@H]3CCC4=CC(=O)C=C[C@]4(C)[C@@]3(F)[C@@H](O)C[C@]2(C)[C@@]1(O)C(=O)CO [DEXAMETHASONE]           true (1)
3  CC(=O)Nc1cccc2c1c(Sc1ccc(Cl)cc1)c(C)n2CC(=O)O [AZD1981]          false (0)
4  CC[C@H](NC(=O)c1c(C)c(-c2ccccc2)nc2ccccc12)c1ccccc1 [SB-222200]           true (1)
5  CCCCCCCCCCCCCCC[C@@H](O)[C@@H](N)COP(=O)(O)O          false (0)

Hi team, for Nc1nc(-c2ccco2)c2cnn(Cc3ccccc3F)c2n1 , is the recorded Growth Rate at or above 0.7?
false (0)

----------
system: Fibroblast; test: Incucyte cell viability with human fibroblast; type: toxicity, cell-based; details: 0 h, 10 µM, compound concentration 10 uM, replicate number 2, timepoint 0 hours; note: unitless GR value; below 1 slowed growth and below 0 cell loss
Growth Rate overview
Please reply with the value in numeric form only.

Compound	Result
CC(C)(C)c1ccc(S(=O)(=O)Nc2ccc(Cl)cc2C(=O)c2cc[n+]([O-])cc2)cc1 [VERCIRNON]	0.25
CSCC[C@H](NC(=O)[C@@H]1CCCN1C(=O)CNC(=O)[C@H](CCCCN)NC(=O)[C@H](Cc1cnc[nH]1)NC(=O)[C@H](CO)NC(=O)[C@H](CC(C)C)NC(=O)[C@H](CCCNC(=N)N)NC(=O)[C@@H]1CCCN1C(=O)[C@H](CCCNC(=N)N)NC(=O)[C@@H](N)CCC(N)=O)C(=O)N1CCC[C@H]1C(=O)N[C@@H](Cc1ccccc1)C(=O)O	0.64

Kindly consider the entry below.
GET /values?readout=Growth Rate&item= Cc1cc(C)cc([C@@H]2c3cc(C)ccc3NC(=O)CN2C(=O)c2ccc(Br)s2)c1
0.74

----------
test system: Fibroblast; experiment: Incucyte cell viability with human fibroblast; assay type: toxicity, cell-based; conditions: 18 h, 10 µM, compound concentration 10 uM, replicate number 1, timepoint 18 hours; note: unitless GR value; below 1 slowed growth and below 0 cell loss
Measured quantity: Growth Rate
Please reply with the value in numeric form only.

As a guide, the following entries are already answered.
In [3]: df
Out[3]:
                                   molecule  measured_quantity  result
0  O=C(NCCO)c1cccc(-c2cc(Nc3ccc(OC(F)(F)F)cc3)ncn2)c1        Growth Rate   -0.61
1  CCOc1nc2cccc(C(=O)O)c2n1Cc1ccc(-c2ccccc2-c2nnn[nH]2)cc1        Growth Rate     0.8
2  CC(C)OC(=O)N1CCC(Oc2ncnc3c2cnn3-c2ccc(S(C)(=O)=O)cc2F)CC1        Growth Rate    0.38

GET /values?readout=Growth Rate&item= COc1ccc2cc(S(=O)(=O)N[C@H](CC(=O)N[C@H](Cc3ccc(CN4[C@H](C)CCC[C@@H]4C)cc3)C(=O)N(C)C(C)C)c3ccc4c(c3)OCO4)ccc2c1.Cl
-0.65

GET /values?readout=Growth Rate&item= C[C@@H]1CN(Cc2ccc(F)cc2)CCN1C(=O)COc1ccc(Cl)cc1NC(N)=O [BX 471 FREE BASE]
-0.19

GET /values?readout=Growth Rate&item= CCCN[C@H]1CCc2nc(N)sc2C1.Cl.Cl
0.84

GET /values?readout=Growth Rate&item= O=C1[C@H](Cc2ccc(O)cc2)N2C(=O)CCN(C(=O)NCc3ccccc3)[C@H]2CN1Cc1cccc2ccccc12
-0.71

GET /values?readout=Growth Rate&item= CO[C@H]1CC[C@@H](C(=O)c2ccc3nc4c(cc3c2)CCCO4)CC1
0.79
